tested on: UCD52 (cells of a triple-negative basal-like breast cancer xenograft); experiment: cell viability (% of vehicle); higher = less cytotoxic; conditions: 10 µM; 72 h;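 also: PDX cells carrying CMV promoter-driven luciferase, viability read as total photon flux per second by IVIS imaging following D-luciferin, vehicle control 0.1% DMSO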
The following compounds are shown together with reported cell viability values.
Provide a numeric answer; units are not to be included.

In [3]: df
Out[3]:
                                   compound  target_or_system  reported_result
0    CC(=O)NC(CS)C(=O)O (centres undefined)             UCD52               90
1  CCCCOc1cc(C(=O)NCCN(CC)CC)c2ccccc2n1.Cl [Dibucaine (Cinchocaine) HCl]             UCD52               68

Entry Cc1ccc(NC(=O)c2ccc(CN3CCN(C)CC3)cc2)cc1Nc1nccc(-c2cccnc2)n1 [Imatinib (STI571)] , system UCD52: what cell viability was measured?
89.2

Request: cell viability, test system UCD52, entry CCN(CC)CCOCCOC(=O)C(CC)(CC)c1ccccc1.O=C(O)CC(O)(CC(=O)O)C(=O)O [Oxeladin Citrate]
84.9

Kindly state the measured cell viability obtained for CCOC(=O)CC(=O)N1CCSC1COc1ccccc1OC (centres undefined) with UCD52.
83.2

Param readout= cell viability; system= UCD52; entry= Cc1ccc(C2OC(CO)C(O)C(O)C2O)cc1Cc1ccc(-c2ccc(F)cc2)s1 (centres undefined) ; returns value.
76

Identify the measured cell viability of Cc1c(O)c(=O)ccn1C for UCD52.
85.8

Give the reported cell viability for CC(O)C1C(=O)N2C(C(=O)OCOC(=O)C(C)(C)C)=C(SC3CN(C4=NCCS4)C3)C(C)C12 (centres undefined) (system: UCD52).
97.2

====

tested on: HCI09 (cells of a triple-negative luminal androgen receptor type breast cancer xenograft); assay: cell viability (% of vehicle); higher = less cytotoxic; settings: 10 µM; 72 h
RESULT TYPE: cell viability
Just the number, please, no unit after it.

Please provide the recorded cell viability for CCCc1cc(=O)[nH]c(=S)[nH]1 , tested on HCI09.
100

Given the entry CCC1C(=O)N(C)c2cnc(Nc3ccc(C(=O)NC4CCC(N5CCN(CC6CC6)CC5)CC4)cc3OC)nc2N1C(C)C (stereo not given) , what cell viability was observed with HCI09?
26.4

Recall the recorded cell viability for CCN(CC)CCNC(=O)c1c(C)[nH]c(C=C2C(=O)Nc3ccc(F)cc32)c1C with HCI09 and state it.
71.8

Given the entry Nc1ccc(O)c(C(=O)O)c1 , what cell viability was observed with HCI09?
116

Form: Entry = CC(S)C(=O)NCC(=O)O (stereo not given) | System = HCI09 | cell viability = ____
54.6

Give recorded cell viability with HCI09 for the following compound: CC(=O)N[C@H](Cc1ccc2ccccc2c1)C(=O)N[C@H](Cc1ccc(Cl)cc1)C(=O)N[C@H](Cc1cccnc1)C(=O)N[C@@H](CO)C(=O)N[C@@H](Cc1ccc(O)cc1)C(=O)N[C@H](CCCNC(N)=O)C(=O)N[C@@H](CC(C)C)C(=O)N[C@@H](CCCNC(=N)N)C(=O)N1CCC[C@H]1C(=O)N[C@H](C)C(N)=O
96.7

Lab request: please report cell viability under test system HCI09 for CC(=O)Oc1cccc2c1C(=O)c1c(OC(C)=O)cc(C(=O)O)cc1C2=O
79.1

Recall the recorded cell viability for CC12CCC3=C4CCC(=O)C=C4CCC3C1CCC2(O)CC#N (stereo not given) with HCI09 and state it.
94.3

Look up cell viability with HCI09 for this compound: CC1(C)SC2C(NC(=O)C(NC(=O)N3CCN(S(C)(=O)=O)C3=O)c3ccccc3)C(=O)N2C1C(=O)O.[Na] (stereo not given) [Mezlocillin Sodium]
104

Record lookup: for HCI09, what cell viability belongs to Cc1onc(-c2ccccc2)c1-c1ccc(S(N)(=O)=O)cc1 ?
85.3

For HCI09, provide cell viability of NCC(O)c1ccc(O)c(O)c1.O.O=C(O)C(O)C(O)C(=O)O (stereo not given) [Noradrenaline bitartrate monohydrate] please.
133

Requested read-out cell viability, target or system HCI09, entry OC(Cn1cncn1)(Cn1cncn1)c1ccc(F)cc1F
99.3

====

tested on: HCI03 (cells of an ER-positive luminal breast cancer xenograft); assay: cell viability (% of vehicle); higher = less cytotoxic; details: 10 µM; 72 h
RESULT TYPE: cell viability
Please respond with just the number, no unit label.

The cases that follow already have their cell viability on record.
>>> print(df.to_string())
                                   molecule     result_type  reported_result
0        CN(CC=CC#CC(C)(C)C)Cc1cccc2ccccc12  cell viability              114
1  O=C1CCC(C(=O)N2CSCC2C(=O)O)N1 (stereo not given)  cell viability              137
2  CC(=O)O.C[C@H](N)C(=O)O.NCCCC[C@H](N)C(=O)O.N[C@@H](CCC(=O)O)C(=O)O.N[C@@H](Cc1ccc(O)cc1)C(=O)O [glatiramer acetate]  cell viability              136
3  Cl.Cl.OCCOCCN1CCN(C(c2ccccc2)c2ccc(Cl)cc2)CC1 (stereo not given) [Hydroxyzine 2HCl]  cell viability             99.9
4  COc1cc2c(cc1OC)CC(=O)N(CCCN(C)CC1Cc3cc(OC)c(OC)cc31)CC2.Cl (stereo not given) [Ivabradine HCl]  cell viability              121
5  C#CC1(O)CCC2C3CCC4=CC(=O)CCC4C3CCC21C (stereo not given)  cell viability              134
6  CCOC(=O)C1=C[C@]2(CC)CCCN3CCc4c(n1c1ccccc41)[C@@H]32  cell viability              108
7  O=C([O-])CCCc1ccccc1.[Na+] [Sodium Phenylbutyrate]  cell viability              135
8  N#CC(c1ccc(Cl)cc1)c1c(Cl)cc(-n2ncc(=O)[nH]c2=O)cc1Cl (stereo not given)  cell viability              119

# next molecule below
What measured cell viability goes with CC(NC(=O)C(O)C(C)C)C(=O)NC1C(=O)N(C)CCc2ccccc21 (stereo not given) ?
106

====

test system: HCI16 (cells of a triple-negative basal-like breast cancer xenograft); test: cell viability (% of vehicle); higher = less cytotoxic; conditions: 10 µM; 72 h
Some compounds, each annotated with its measured cell viability.
Write the number on its own, no unit after it.

Please review the following examples before continuing.
>>> df
                                   compound     result_type  reported_result
0  Cl.O=C1OC(CN2CCOCC2)CN1N=Cc1ccc([N+](=O)[O-])o1 (stereo not given) [Furaltadone HCl]  cell viability               97
1  COc1ccc(C2CNC(=O)C2)cc1OC1CCCC1 (stereo not drawn) [S- (+)-Rolipram]  cell viability              136
2  Cn1c(=O)c2[nH]cnc2n(C)c1=O.Cn1c(=O)c2[nH]cnc2n(C)c1=O.NCCN  cell viability             75.8

cell viability for C=CC(=O)N1CCCC(n2nc(-c3ccc(Oc4ccccc4)cc3)c3c(N)ncnc32)C1 (stereo not given) ?
55.6

So what does the record say about cell viability for CCN1CCN(c2cc3c(cc2F)c(=O)c(C(=O)O)cn3C2CC2)CC1 ?
111

Bench note: what cell viability did CN1CCC(=C2c3ccccc3CCc3sccc32)CC1.O=C(O)CC(O)C(=O)O [Pizotifen Malate] show?
111

Would you mind telling me what cell viability value was observed for Cl.Clc1cccc(Cl)c1NC1=NCCN1 [Clonidine HCl] ?
135

Quick check: cell viability of COC(=O)NC(C(=O)NC(Cc1ccccc1)C(O)CN(Cc1ccc(-c2ccccn2)cc1)NC(=O)C(NC(=O)OC)C(C)(C)C)C(C)(C)C (stereo not given) ?
151

Suppose we examine the compound Cc1cc(=O)n(-c2ccccc2)n1C [Antipyrine] ; what cell viability value has been reported?
95.9

Give its cell viability value. Item: CC(=O)OCC(=O)NCCCOc1cccc(CN2CCCCC2)c1.Cl [Roxatidine Acetate HCl]
131

====

system: UCD52; test: cell viability (% of vehicle); higher = less cytotoxic; conditions: 10 µM; 72 h
RESULT TYPE: cell viability
# answer = number (no unit)

COMPOUND	REPORTED RESULT
CCCCCC(O)C=CC1C(O)CC(=O)C1CCCCCCC(=O)O (configuration not stated) [Alprostadil]	124
Nc1nc(Cl)nc2c1ncn2C1CC(O)C(CO)O1 (configuration not stated) [Cladribine]	110

// query cell viability value for entry Cc1nc2n(c(=O)c1CCN1CCC(c3noc4cc(F)ccc34)CC1)CCCC2 [Risperidone]
83.8

Give its cell viability value. Item: CC(=O)Oc1cccc2c1C(=O)c1c(OC(C)=O)cc(C(=O)O)cc1C2=O [Diacerein]
98.6

So what's the measured cell viability for this one? Cl.c1ccc2c(CC3=NCCN3)cccc2c1 [Naphazoline HCl]
81.6

Request the reported cell viability associated with CC(C)(C)NC(=O)C1CCC2C3CCC4NC(=O)C=CC4(C)C3CCC12C (configuration not stated) [Finasteride]
81.1

Fill blank: measured cell viability of the compound Cl.NC1=NCC2c3ccccc3Cc3ccccc3N12 (configuration not stated) [Epinastine HCl] is ____.
79

What cell viability value was documented for this compound, CN(C)C(=O)COC(=O)Cc1ccc(OC(=O)c2ccc(N=C(N)N)cc2)cc1.CS(=O)(=O)O [Camostat Mesilate] ?
99.8

Any idea what its cell viability is? The compound is CNS(=O)(=O)Cc1ccc2[nH]cc(CCN(C)C)c2c1 [Sumatriptan]
98
